Attribution: patent US8710089B2

Target: human GHS-R 1a (Homo sapiens, UniProt Q92847)
Sequence (Q92847 whole entry): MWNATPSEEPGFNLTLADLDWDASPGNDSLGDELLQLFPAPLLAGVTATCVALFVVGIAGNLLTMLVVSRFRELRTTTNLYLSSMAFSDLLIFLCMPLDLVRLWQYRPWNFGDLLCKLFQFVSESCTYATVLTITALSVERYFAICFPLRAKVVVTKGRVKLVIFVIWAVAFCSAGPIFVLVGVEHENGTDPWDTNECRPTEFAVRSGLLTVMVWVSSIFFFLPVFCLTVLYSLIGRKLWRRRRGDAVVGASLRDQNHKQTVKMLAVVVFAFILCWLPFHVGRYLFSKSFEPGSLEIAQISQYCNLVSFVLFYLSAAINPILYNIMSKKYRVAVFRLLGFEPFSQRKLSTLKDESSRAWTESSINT
Assay: GHS-R 1a receptor-ligand binding assay (membrane preparations from transfected LLC PK-1 cells)
Details: displacement of 125I-His9-ghrelin (60 pM); membranes of LLC PK-1 cells transfected with human GHS-R 1a; mean of at least two independent experiments in triplicates
Protocol: (J. Med. […] Med. Chem. 2003, 46: 1191-1203), were incubated in homogenization buffer HB [50 mM Tris (pH 7.3), 5 mM MgCl2, 2.5 mM EDTA, and 30 μg/mL bacitracin (Sigma)] for 60 min at 25° C. (steady-state conditions) with 60 pM ^125I-[…]-ghrelin (Amersham) in the presence or absence of competing compounds (compounds of the invention). […] Nonspecific binding was defined using an excess (10^-6 M) of ghrelin. […]
pIC50: −log10 of the molar value.
This listing pairs compounds with measured pIC50.

| Smiles code | Target or system | pIC50 |
| --- | --- | --- |
| COc1ccc(Cn2c(CCc3ccccc3)nnc2[C@@H](Cc2c[nH]c3ccccc23)NC(=O)[C@H]2CCCNC2)cc1 | human GHS-R 1a (Homo sapiens, UniProt Q92847) | 7.80 |
| COc1ccc(Cn2c(CCc3ccccc3)nnc2[C@@H](Cc2c[nH]c3ccccc23)NC(=O)Cc2ccccn2)cc1 | human GHS-R 1a (Homo sapiens, UniProt Q92847) | 8.52 |
| COc1ccc(Cn2c(CCc3ccccc3)nnc2[C@@H](Cc2c[nH]c3ccccc23)NC(=O)[C@H](C)N)cc1 | human GHS-R 1a (Homo sapiens, UniProt Q92847) | 6.85 |
| COc1cccc(Cn2c(CCCc3c[nH]c4ccccc34)nnc2[C@@H](Cc2c[nH]c3ccccc23)NC(=O)C(C)(C)N)c1 | human GHS-R 1a (Homo sapiens, UniProt Q92847) | 7.49 |
| COc1ccc(Cn2c(CCc3c[nH]c4ccccc34)nnc2[C@@H](Cc2c[nH]c3ccccc23)NC(=O)[C@@H]2C=CCN2)cc1 | human GHS-R 1a (Homo sapiens, UniProt Q92847) | 7.92 |
| CC(C)(N)C(=O)N[C@H](Cc1c[nH]c2ccccc12)c1nnc(CCc2c[nH]c3ccccc23)n1CCc1c[nH]c2ccccc12 | human GHS-R 1a (Homo sapiens, UniProt Q92847) | 6.81 |

====

test system: GH concentration in the plasma of male rat pups; experiment: In vivo GH concentration in the plasma of male rat pups; set-up: species or system rat (Sprague-Dawley); conditions: rat pup plasma; compound 160 μg/kg s.c. at -10 min + hexarelin 80 μg/kg s.c. at 0 min, killed 15 min later
Recorded metric: GH concentration (ng/mL)

| Compound | Target or system | Recorded metric | Observed result |
| --- | --- | --- | --- |
| COc1ccc(Cn2c(CCc3c[nH]c4ccccc34)nnc2[C@@H](Cc2c[nH]c3ccccc23)NC(=O)c2cnccn2)c(OC)c1 | GH concentration in the plasma of male rat pups | GH concentration | 173.611 |
| COc1ccc(Cn2c(CCc3c[nH]c4ccccc34)nnc2[C@@H](Cc2c[nH]c3ccccc23)NC(=O)C2CCNCC2)c(OC)c1 | GH concentration in the plasma of male rat pups | GH concentration | 103.528 |
| COc1ccc(Cn2c(CCc3ccccc3)nnc2[C@@H](Cc2c[nH]c3ccccc23)NC(=O)[C@H]2CCCN2)cc1 | GH concentration in the plasma of male rat pups | GH concentration | 160.857 |
| COc1ccc(Cn2c(CCCc3ccccc3)nnc2[C@@H](Cc2c[nH]c3ccccc23)NC(=O)C(C)(C)N)cc1 | GH concentration in the plasma of male rat pups | GH concentration | 239.91 |
| COc1ccc(Cn2c(CCc3c[nH]c4ccccc34)nnc2[C@@H](Cc2c[nH]c3ccccc23)NC(=O)C2CNCCN2)cc1 (stereo partly drawn) | GH concentration in the plasma of male rat pups | GH concentration | 216.575 |
| COc1ccc(Cn2c(CCc3ccccc3)nnc2[C@@H](Cc2c[nH]c3ccccc23)NC(=O)[C@@H]2CCCCN2)cc1 | GH concentration in the plasma of male rat pups | GH concentration | 145.946 |
